# Study target: BChE (Homo sapiens, UniProt P06276)
# Sequence (P06276 29-602): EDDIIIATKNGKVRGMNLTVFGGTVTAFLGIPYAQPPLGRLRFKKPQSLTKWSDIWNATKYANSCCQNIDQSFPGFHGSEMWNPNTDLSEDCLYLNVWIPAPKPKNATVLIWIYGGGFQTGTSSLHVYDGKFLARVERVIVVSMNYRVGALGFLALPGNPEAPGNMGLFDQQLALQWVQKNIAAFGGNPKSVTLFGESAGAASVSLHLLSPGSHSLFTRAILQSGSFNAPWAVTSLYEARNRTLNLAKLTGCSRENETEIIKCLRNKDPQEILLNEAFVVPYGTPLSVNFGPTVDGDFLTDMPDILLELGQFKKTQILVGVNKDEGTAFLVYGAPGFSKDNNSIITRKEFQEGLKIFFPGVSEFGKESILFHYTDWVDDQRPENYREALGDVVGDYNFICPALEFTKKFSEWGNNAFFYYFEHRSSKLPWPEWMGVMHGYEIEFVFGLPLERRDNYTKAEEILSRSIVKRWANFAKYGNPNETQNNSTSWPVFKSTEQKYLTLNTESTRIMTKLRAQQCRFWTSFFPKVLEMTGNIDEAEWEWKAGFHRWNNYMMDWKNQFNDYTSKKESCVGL
# Test name: Microtiter (Ellman) assay for BChE inhibition
# Format: biochemical
# Experimental setup: read-out: ChE Inhibition (Inhibition % ± S.D. at 100 µg/mL) BChE
Measurement label: inhibition at 100 µg/mL (%)
Write the number in % without appending the unit.

Solved entries (count: 3):
Compound	Readout number
C[C@@H]1O[C@@H](O[C@@H]2[C@@H](O)[C@H](OCCc3ccc(O)c(O)c3)O[C@H](CO)[C@H]2OC(=O)/C=C/c2ccc(O)c(O)c2)[C@H](O)[C@H](O)[C@H]1O [Verbascoside]	22.2
C[C@@H]1CC[C@@]2(OC1)O[C@H]1C[C@H]3[C@@H]4CC[C@H]5C[C@@H](O)CC[C@]5(C)[C@H]4CC[C@]3(C)[C@H]1[C@@H]2C [Tigogenin]	22.2
CC(=O)OC1C(O)COC(OC2CCC34CC35CCC3(C)C(C6(C)CCC(C(C)(C)O)O6)C(O)CC3(C)C5CC(OC3OCC(O)C(O)C3O)C4C2(C)C)C1OC(C)=O (centres unmarked) [Astrasieversianin II]	13.6

# evaluate next
# input // lookup inhibition at 100 µg/mL for CC(C)(O)[C@@H]1CC[C@](C)([C@H]2[C@@H](O)C[C@@]3(C)[C@@H]4C[C@H](O[C@@H]5O[C@H](CO)[C@@H](O)[C@H](O)[C@H]5O)[C@H]5C(C)(C)[C@@H](O[C@@H]6OC[C@@H](O)[C@H](O)[C@H]6O)CC[C@@]56C[C@@]46CC[C@]23C)O1 [Astragaloside IV]
# output 6.62

###

// reported pIC50 per item
# Study target: AChE (Homo sapiens)
# Test name: biochemical
For clarity, pIC50 is expressed as the negative log10 of concentration in mol/L.

Compound	Readout number
C[C@@H]1CC[C@@]2(OC1)O[C@H]1C[C@H]3[C@@H]4CC[C@@H]5C[C@@H](O)CC[C@]5(C)[C@H]4CC[C@]3(C)[C@H]1[C@@H]2C [Smilagenin]	3.98

Please turn your attention to the following entry.
# input # pIC50 lookup, item COc1cc2nc3occc3c(OC)c2cc1OC [Kokusaginine]
# output 3.57

###

# Study target: BChE (Homo sapiens, UniProt P06276)
# Test name: Microtiter (Ellman) assay for BChE inhibition
# Format: biochemical
# Experimental setup: at 100 µg/mL; n: 3; '-' = No inhibition; read-out: ChE Inhibition (Inhibition % ± S.D. at 100 µg/mL) BChE
inhibition at 100 µg/mL values by entry
// return numeric value only (unit: %, not printed)

Compound	U	inhibition at 100 µg/mL
COc1cc(C=CC(=O)OC2C(COC3OCC(O)(CO)C3O)OC(OCCc3ccc(O)c(O)c3)C(O)C2OC2OC(C)C(O)C(O)C2O)ccc1O (centres unmarked) [Alyssonoside]	%	13
COC(=O)C1=COC(OC2OC(CO)C(O)C(O)C2O)C2C(C)(O)CCC12O (centres unmarked) [Ipolamide]	%	12.4
COc1cc2nc3occc3c(OC)c2cc1OC [Kokusaginine]	%	67.4
COC(=O)C1=COC(OC2OC(CO)C(O)C(O)C2O)C2C1(O)CC(O)C2(C)O (centres unmarked) [Lamiide]	%	8.77

Now for the compound whose inhibition at 100 µg/mL we want.
# input Reported inhibition at 100 µg/mL, compound COC(=O)[C@@H](Cc1ccc(O)c(O)c1)OC(=O)/C=C/c1ccc(O)c(O)c1 [Methyl rosmarinate] : ____
# output 82.7

###

Reported values of inhibition at 100 µg/mL for individual entries
# Study target: BChE (Homo sapiens)
# Test name: Microtiter (Ellman) assay for BChE inhibition
# Format: biochemical
# Experimental setup: read-out: ChE Inhibition (Inhibition % ± S.D. at 100 µg/mL) BChE
# Procedure: Inhibition of AChE and BChE was determined by Ellman’s method with slight modifications. […] The absorbance is measured at 417 nm using a 96-well ELISA microplate reader (VersaMax, Molecular Devices, San Jose, CA, USA) Galanthamine was used the reference drug. The measurements and calculations were evaluated by using Softmax PRO 4.3.2.LS software. Percentage of inhibition of AChE/BChE/TYR was determined by comparison of rates of reaction of test samples relative to blank samples. […]
Give a bare numeral; the unit % is implied.

Known inhibition at 100 µg/mL results, listed for orientation:
Compound	U	inhibition at 100 µg/mL
CC(=O)OC1C(O)COC(OC2CCC34CC35CCC3(C)C(C6(C)CCC(C(C)(C)O)O6)C(O)CC3(C)C5CC(OC3OC(CO)C(O)C(O)C3O)C4C2(C)C)C1OC(C)=O (centres unmarked) [Astragaloside I]	%	8.38
CC(CCC(OC1OCC(O)C(O)C1O)C(C)(C)O)C1CCC2(C)C3C(O)CC4C(C)(C)C(OC5OC(C)C(O)C(O)C5O)CC(O)C45CC35CCC12C (centres unmarked)	%	12.2

# input Quick one: inhibition at 100 µg/mL of CC(CCC(O)C(C)(C)OC1OCC(O)C(O)C1O)C1CCC2(C)C3C(O)CC4C(C)(C)C(OC5OC(C)C(O)C(O)C5O)CC(O)C45CC35CCC12C (centres unmarked) ?
# output 16.5

# input Data request, read-out inhibition at 100 µg/mL, for CC(=O)OC1C(OC(CCC(C)C2CCC3(C)C4C(O)CC5C(C)(C)C(OC6OC(C)C(O)C(O)C6O)CC(O)C56CC46CCC23C)C(C)(C)O)OCC(O)C1O (centres unmarked)
# output 12.2

# input Which inhibition at 100 µg/mL value is on record for CC(C)(O)C1CCC(C)(C2C(O)CC3(C)C4CC(OC5OCC(O)C(O)C5O)C5C(C)(C)C(OC6OCC(O)C(O)C6O)CCC56CC46CCC23C)O1 (centres unmarked) ?
# output 10.1

###

# Study target: AChE (Homo sapiens, UniProt P22303)
# Sequence (P22303 32-614): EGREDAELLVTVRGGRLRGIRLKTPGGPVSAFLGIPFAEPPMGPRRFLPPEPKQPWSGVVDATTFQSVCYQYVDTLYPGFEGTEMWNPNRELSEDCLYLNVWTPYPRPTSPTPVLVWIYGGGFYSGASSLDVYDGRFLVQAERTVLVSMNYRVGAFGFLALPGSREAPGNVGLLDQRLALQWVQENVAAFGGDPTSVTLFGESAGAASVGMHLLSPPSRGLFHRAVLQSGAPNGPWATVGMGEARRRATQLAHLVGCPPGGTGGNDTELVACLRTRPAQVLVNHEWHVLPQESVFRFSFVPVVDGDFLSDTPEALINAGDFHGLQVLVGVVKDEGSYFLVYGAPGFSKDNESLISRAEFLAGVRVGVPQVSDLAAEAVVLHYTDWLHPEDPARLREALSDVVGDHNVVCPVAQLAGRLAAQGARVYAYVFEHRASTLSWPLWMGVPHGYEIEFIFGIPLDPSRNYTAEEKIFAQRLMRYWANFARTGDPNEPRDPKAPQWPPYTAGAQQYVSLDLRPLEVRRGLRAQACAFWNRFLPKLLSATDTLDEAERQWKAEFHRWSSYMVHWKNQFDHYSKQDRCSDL
# Test name: biochemical
# Experimental setup: at 100 µg/mL; n: 3; '-' = No inhibition; read-out: ChE Inhibition (Inhibition % ± S.D. at 100 µg/mL) AChE
Measurement label: inhibition at 100 µg/mL (%)
Only the number, expressed in %, is required.

Compound	Study target	Measurement label	Readout number
CC(=O)OC1C(OC(CCC(C)C2CCC3(C)C4C(O)CC5C(C)(C)C(OC6OC(C)C(O)C(O)C6O)CC(O)C56CC46CCC23C)C(C)(C)O)OCC(O)C1O (stereo not shown)	AChE (Homo sapiens, UniProt P22303)	inhibition at 100 µg/mL	9.69

Turning now to a further record.
# input Could you tell me which inhibition at 100 µg/mL is on file for CC(C)(O)C1CCC(C)(C2C(O)CC3(C)C4CC(OC5OCC(O)C(O)C5O)C5C(C)(C)C(OC6OCC(O)C(O)C6O)CCC56CC46CCC23C)O1 (stereo not shown) ?
# output 8.6

###

# Study target: BChE (Homo sapiens)
# Test name: Microtiter (Ellman) assay for BChE inhibition
# Assay type: biochemical
# Experimental setup: read-out: ChE Inhibition (Inhibition % ± S.D. at 100 µg/mL) BChE
Think of 20% as a floor: if inhibition at 100 µg/mL stands on it or above, it is yes (1); beneath it, no (0).

The following compounds have reported results that may help.
Compound	Answer label
C[C@@H]1CC[C@@]2(OC1)O[C@H]1C[C@H]3[C@@H]4CC[C@@H]5C[C@@H](O)CC[C@]5(C)[C@H]4CC[C@]3(C)[C@H]1[C@@H]2C	no (0)
COc1ccc2c3c1O[C@H]1C[C@@H](O)C=C[C@@]31CCN(C)C2 [Galanthamine HBr, reference compound]	yes (1)
C[C@@H]1CC[C@@]2(OC1)O[C@H]1C[C@H]3[C@@H]4CC[C@H]5C[C@@H](O)CC[C@]5(C)[C@H]4CC(=O)[C@]3(C)[C@H]1[C@@H]2C	no (0)

# input Hi team, for CC(CCC(OC1OCC(O)C(O)C1OC1OCC(O)C(O)C1O)C(C)(C)O)C1CCC2(C)C3C(O)CC4C(C)(C)C(OC5OC(C)C(O)C(O)C5O)CC(O)C45CC35CCC12C (stereo not drawn) , is the recorded inhibition at 100 µg/mL at or above 20%?
# output no (0)

# input Confirm if inhibition at 100 µg/mL reported for the compound C[C@@H]1CC[C@@]2(OC1)O[C@H]1C[C@H]3[C@@H]4CC=C5C[C@@H](O)CC[C@]5(C)[C@H]4CC[C@]3(C)[C@H]1[C@@H]2C is 20% or above.
# output no (0)

# input # check: inhibition at 100 µg/mL of CC1CCC2(OC1)OC1CC3C4CCC5CC(O)CCC5(C)C4CC(O)C3(C)C1C2C (stereo not drawn) is greater than or equal to 20%
# output no (0)

###

# Study target: AChE (Homo sapiens, UniProt P22303)
# Test name: biochemical
# Experimental setup: at 100 µg/mL; n: 3; '-' = No inhibition; read-out: ChE Inhibition (Inhibition % ± S.D. at 100 µg/mL) AChE
Measurement label: inhibition at 100 µg/mL

Compound	Result
COc1cc(C=CC(=O)OC2C(COC3OCC(O)(CO)C3O)OC(OCCc3ccc(O)c(O)c3)C(O)C2OC2OC(C)C(O)C(O)C2O)ccc1O (centres unmarked) [Alyssonoside]	< 0%
C[C@@H]1CC[C@@]2(OC1)O[C@H]1C[C@H]3[C@@H]4CC[C@H]5C[C@@H](O)CC[C@]5(C)[C@H]4CC[C@]3(C)[C@H]1[C@@H]2C [Tigogenin]	17%

# input Which inhibition at 100 µg/mL is listed for COC(=O)C1=COC(OC2OC(CO)C(O)C(O)C2O)C2C(C)(O)CCC12O (centres unmarked) [Ipolamide] ?
# output < 0%

# input Field request: inhibition at 100 µg/mL | item: C[C@@H]1CC[C@@]2(OC1)O[C@H]1C[C@H]3[C@@H]4CC[C@H]5C[C@@H](O)CC[C@]5(C)[C@H]4CC(=O)[C@]3(C)[C@H]1[C@@H]2C [Hecogenin]
# output 25%

# input Would you mind telling me what inhibition at 100 µg/mL value was observed for COc1cc2nc3occc3c(OC)c2cc1OC [Kokusaginine] ?
# output 62.4%

# input Name the recorded inhibition at 100 µg/mL for CC(CCC(OC1OCC(O)C(O)C1O)C(C)(C)O)C1CCC2(C)C3C(O)CC4C(C)(C)C(OC5OC(C)C(O)C(O)C5O)CC(O)C45CC35CCC12C (centres unmarked) [Macrophyllosaponin B] .
# output 13.2%

# input Requested field: inhibition at 100 µg/mL. Item: CC(CCC(OC1OCC(O)C(O)C1OC1OCC(O)C(O)C1O)C(C)(C)O)C1CCC2(C)C3C(O)CC4C(C)(C)C(OC5OC(C)C(O)C(O)C5O)CC(O)C45CC35CCC12C (centres unmarked) [Macrophyllosaponin D]
# output 4.31%

# input What value of inhibition at 100 µg/mL has been recorded for this entry: COC(=O)[C@@H](Cc1ccc(O)c(O)c1)OC(=O)/C=C/c1ccc(O)c(O)c1 [Methyl rosmarinate]
# output 16.8%

Values were extracted from paper PMC8037418.
